System: M14
Assay: NCI tumour cell line growth inhibition, 48 h
Active and inactive are the calls of the source. Cut-off read from the data, not from the text of the source: active = GI50 up to about 1.1 µM and inactive = higher.
Labels: TRUE for active, FALSE for inactive

>  <compound>
COc1cc2c(c(O)c1OC)C(=O)C1CCC(=O)N1C2c1cccc2ccccc12 (stereo not drawn)

>  <classLabel>
FALSE

$$$$
>  <compound>
COC(=O)[C@]12CC=C3O[C@@H]4OC5(CCCCC5)O[C@@H]4[C@H]3C1C(=O)C=CC2=O (stereo partly drawn)

>  <classLabel>
FALSE

$$$$
>  <compound>
COc1cc(/C=C2\N=C(C)N(n3c(-c4ccccc4)nc4ccccc4c3=O)C2=O)cc(OC)c1OC

>  <classLabel>
FALSE

$$$$
>  <compound>
CC1=NN2CCC(=O)N=C2S1

>  <classLabel>
FALSE

$$$$
>  <compound>
C=CCc1cccc2cc(C(=O)NCc3ccccc3)c(=N)oc12

>  <classLabel>
FALSE

$$$$
>  <compound>
Cc1cccc2c1NC(=S)[C@@H]1CCCN1C2=O

>  <classLabel>
FALSE

$$$$
>  <compound>
OC12c3ccccc3C1CCCCCCCCCC21OCCCO1 (stereo not drawn)

>  <classLabel>
FALSE

$$$$
>  <compound>
COC(=O)C1C2C=CC(C2)N1[C@@H](C)c1ccccc1 (stereo partly drawn)

>  <classLabel>
FALSE

$$$$
>  <compound>
C=C1CC/C=C(\C)CCC[C@H](C)[C@@H](O)[C@@H]2OC(=O)C(=C)[C@@H]2C[C@H]1O

>  <classLabel>
FALSE

$$$$
>  <compound>
Cc1nn(C(=O)c2ccccc2O)c2c1C(c1ccccc1)SC(=N)N2 (stereo not drawn)

>  <classLabel>
FALSE

$$$$
>  <compound>
O=C(Nc1nc2ncn(CC(COc3ccccc3)OC(=O)c3ccccc3)c2c(=O)[nH]1)c1ccccc1 (stereo not drawn)

>  <classLabel>
FALSE

$$$$
>  <compound>
CCC/C=C/C=C/C(=O)OC1C(C)C2(O)C3C=C(C)C(=O)C3CC(COC(C)=O)=CC2C2C(C)(C)C12OC(=O)C(C)C (stereo not drawn)

>  <classLabel>
FALSE

$$$$
>  <compound>
CCCC(=O)c1ccc(=O)n(C)c1

>  <classLabel>
FALSE

$$$$
>  <compound>
Cc1ccc(S(=O)(=O)NCCCSCCO)cc1

>  <classLabel>
FALSE

$$$$
>  <compound>
COC(=O)c1c(OC(C)=O)ccc2c1c1cc3ccccc3c(OC(C)=O)c1n2C

>  <classLabel>
FALSE

$$$$
>  <compound>
CCOP(=O)(OCC)c1c(C(=O)OC)cc(=O)[nH]c1-c1ccc(C)cc1

>  <classLabel>
FALSE

$$$$
>  <compound>
Cc1ccc(NC(=O)CCC(=O)C(C#N)c2ccccc2)cc1C (stereo not drawn)

>  <classLabel>
FALSE

$$$$
>  <compound>
Cc1cc(=O)oc2cc3oc(N(C)c4ccccc4)nc(=O)c3cc12

>  <classLabel>
FALSE

$$$$
>  <compound>
CC(C)(C)C1CCC2c3c([nH]c4ccccc34)C3C(=O)N(c4ccccc4[N+](=O)[O-])C(=O)C3C2C1 (stereo not drawn)

>  <classLabel>
FALSE

$$$$
>  <compound>
CC#Cc1ccc(-c2ccccc2)s1

>  <classLabel>
FALSE

$$$$
>  <compound>
O=C1Nc2cc([N+](=O)[O-])ccc2C(=O)N2CCC[C@@H]12

>  <classLabel>
FALSE

$$$$
>  <compound>
COc1ccc(N2C(=O)C3c4[nH]c5c(C)cccc5c4C4CCC(C(C)(C)C)CC4C3C2=O)cc1 (stereo not drawn)

>  <classLabel>
FALSE

$$$$
>  <compound>
CN(C)C(=S)N/N=C\C=N/NC(=S)N(C)C

>  <classLabel>
TRUE

$$$$
